measurement_description: PAMPA permeability, liver polar lipid extract (LPLE) membrane
reported_conditions: bovine, PAMPA, pH 7.4, Mean logPe, n=3
readout_name: Papp at 4 h, 100 μM
Quote the value and follow it with the unit of measurement.

Query: Quote Papp at 4 h, 100 μM reported for COCCc1ccc(OCC(O)CNC(C)C)cc1 (stereo not drawn) [metoprolol] please.
Response: 195 nm/s

Query: Please look at this molecule and report its Papp at 4 h, 100 μM: COc1ccc2c(c1)N(C[C@H](C)CN(C)C)c1ccccc1S2 [levomepromazine]
Response: 234 nm/s

As a next step, examine the molecule that follows.
Query: Report measured Papp at 4 h, 100 μM; entry is CCn1cc(C(=O)O)c(=O)c2cc(F)c(N3CCNCC3)cc21 [norfloxacin]
Response: 52.5 nm/s
